# ASSAY_PROCEDURE: Half-life of HSA and of SABA1-4 with or without HSA in mice (ELISA, WinNonlin)
# Assay type: in vivo, Ncr nude female mice
# TEST_CONDITIONS: with HSA vs without HSA, mice
# Method: The pharmacokinetic parameters of each Adnectin™ were determined using non-compartmental modeling with WinNonlin software.
VALUE_TYPE: increase in half life when co-injected with HSA

Some solved entries appear below for comparison.
SABA1.1: core SABA1 with N-terminal MGVSDVPRDLE, C-terminal EIDKPSQ and His6 tag; SEQ ID NO: 89 (protein) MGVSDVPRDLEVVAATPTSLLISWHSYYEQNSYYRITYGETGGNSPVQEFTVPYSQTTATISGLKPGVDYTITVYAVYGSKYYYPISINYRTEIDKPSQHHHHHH	~10 fold
SABA2.1: His-tagged SABA2 sequence (protein, His6 tag) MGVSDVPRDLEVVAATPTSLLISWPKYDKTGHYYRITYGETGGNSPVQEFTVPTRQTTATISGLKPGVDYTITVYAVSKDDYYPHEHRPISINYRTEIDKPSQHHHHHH	~12 fold

Then there is this molecule:
The molecule listed as SABA4.1: HSA binding clone of SABA4 (protein, His6 tag) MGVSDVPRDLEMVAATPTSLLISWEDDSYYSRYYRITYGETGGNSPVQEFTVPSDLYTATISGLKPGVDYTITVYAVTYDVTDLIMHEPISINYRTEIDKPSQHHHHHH has a reported increase in half life when co-injected with HSA of ~7 fold
